# credit: the supplement of paper PMC10126150

Tested on: ATP;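 also: ATP exposure 15 min at 22 °C before imaging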
Assay: switch fluorescence ratio, 500 uM ATP over buffer (Cy3 cluster intensity, sum of 5 cycles each) (fold (ratio)); higher = stronger signal-on switching upon ATP binding; sequences stand for … in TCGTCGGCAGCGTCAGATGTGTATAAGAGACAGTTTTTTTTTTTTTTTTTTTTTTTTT…TC
Conditions: aptamer strand: ATP DNA aptamer (quencher-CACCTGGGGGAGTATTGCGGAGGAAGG + anchor), 100 nM annealed; ATP concentration: 500 uM
measurementLabel: switch fluorescence ratio

Prompt: State switch fluorescence ratio (ATP) of `GAACTGGTAG` .
Completion: 0.992

Prompt: State switch fluorescence ratio (ATP) of `AGTCTCAAGT` .
Completion: 1.01

Prompt: State switch fluorescence ratio (ATP) of `TTTGGAGCAC` .
Completion: 1.6

Prompt: State switch fluorescence ratio (ATP) of `GTGACTTTTA` .
Completion: 1.01

Prompt: State switch fluorescence ratio (ATP) of `ATGAAAGGCT` .
Completion: 1.02

Prompt: State switch fluorescence ratio (ATP) of `GCGCCTAGGG` .
Completion: 0.999

Prompt: State switch fluorescence ratio (ATP) of `GGGGGGCCCT` .
Completion: 0.996

Prompt: State switch fluorescence ratio (ATP) of `CGTGGGAGGG` .
Completion: 0.99

Prompt: State switch fluorescence ratio (ATP) of `TAGCTGTCAC` .
Completion: 1.04

Prompt: State switch fluorescence ratio (ATP) of `TGAGAAGGAA` .
Completion: 1.03

Prompt: State switch fluorescence ratio (ATP) of `GGTAGCCTGC` .
Completion: 1.02

Prompt: State switch fluorescence ratio (ATP) of `TATGTCATAC` .
Completion: 1.14

Prompt: State switch fluorescence ratio (ATP) of `GGGGGAGTAA` .
Completion: 1.05

Prompt: State switch fluorescence ratio (ATP) of `TAAGTATTTT` .
Completion: 1.01

Prompt: State switch fluorescence ratio (ATP) of `TAATGTGTAC` .
Completion: 1.02

Prompt: State switch fluorescence ratio (ATP) of `TTCAATGAAA` .
Completion: 1

Prompt: State switch fluorescence ratio (ATP) of `AAGGGGTCCA` .
Completion: 0.991

Prompt: State switch fluorescence ratio (ATP) of `TTTTCTGGTT` .
Completion: 0.97

Prompt: State switch fluorescence ratio (ATP) of `TTCAGGTGCC` .
Completion: 1.46

Prompt: State switch fluorescence ratio (ATP) of `TGTTGTTTAA` .
Completion: 1.04

Prompt: State switch fluorescence ratio (ATP) of `TTTCACGGGA` .
Completion: 1.07

Prompt: State switch fluorescence ratio (ATP) of `CAGGCTGTCG` .
Completion: 1.02

Prompt: State switch fluorescence ratio (ATP) of `ATAATGGTTT` .
Completion: 0.987

Prompt: State switch fluorescence ratio (ATP) of `TTGGGGCCGT` .
Completion: 1.04

Prompt: State switch fluorescence ratio (ATP) of `TAAAAGGGCG` .
Completion: 1.03

Prompt: State switch fluorescence ratio (ATP) of `TTTCAGACAC` .
Completion: 1.02

Prompt: State switch fluorescence ratio (ATP) of `CGAGGGAGTT` .
Completion: 0.986

Prompt: State switch fluorescence ratio (ATP) of `TCGGGGTTTT` .
Completion: 1.02

Prompt: State switch fluorescence ratio (ATP) of `AAAAACCTCG` .
Completion: 1.05

Prompt: State switch fluorescence ratio (ATP) of `TTCGTGTATC` .
Completion: 0.999

Prompt: State switch fluorescence ratio (ATP) of `AGTCAAGGGT` .
Completion: 1

Prompt: State switch fluorescence ratio (ATP) of `GCAAGGGGGG` .
Completion: 1.09

Prompt: State switch fluorescence ratio (ATP) of `TTTGTTCGGC` .
Completion: 1

Prompt: State switch fluorescence ratio (ATP) of `GTTTGTACGT` .
Completion: 0.975

Prompt: State switch fluorescence ratio (ATP) of `TAGTAACATA` .
Completion: 1.01

Prompt: State switch fluorescence ratio (ATP) of `TCCCAGCTGT` .
Completion: 1.12

Prompt: State switch fluorescence ratio (ATP) of `GGCGAAGGAG` .
Completion: 0.999

Prompt: State switch fluorescence ratio (ATP) of `TTATTGGAAA` .
Completion: 1.01

Prompt: State switch fluorescence ratio (ATP) of `TGAGTTAGTT` .
Completion: 1.01

Prompt: State switch fluorescence ratio (ATP) of `TTTAGGCAAT` .
Completion: 3.43

Prompt: State switch fluorescence ratio (ATP) of `CACCGAGTTT` .
Completion: 0.987

Prompt: State switch fluorescence ratio (ATP) of `GGAACAGGGT` .
Completion: 0.934

Prompt: State switch fluorescence ratio (ATP) of `CCCAATTCCT` .
Completion: 1.14

Prompt: State switch fluorescence ratio (ATP) of `TTGACATGC` .
Completion: 1.01

Prompt: State switch fluorescence ratio (ATP) of `TTCATAGTCG` .
Completion: 0.98

Prompt: State switch fluorescence ratio (ATP) of `AAAACATCGC` .
Completion: 1.02

Prompt: State switch fluorescence ratio (ATP) of `GGGGCCGTTT` .
Completion: 0.973

---

System: ATP;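 also: ATP exposure 15 min at 22 °C before imaging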
Test: switch fluorescence ratio, 500 uM ATP over buffer (Cy3 cluster intensity, sum of 5 cycles each) (fold (ratio)); higher = stronger signal-on switching upon ATP binding; sequences stand for … in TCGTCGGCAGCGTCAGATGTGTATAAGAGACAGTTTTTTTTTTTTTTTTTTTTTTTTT…TC
Conditions: aptamer strand: ATP DNA aptamer (quencher-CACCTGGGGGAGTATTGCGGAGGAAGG + anchor), 100 nM annealed; ATP concentration: 500 uM
# cutoff 1 applies to switch fluorescence ratio; >= gives MET, < gives NOT MET

Prompt: Hi team, for `CCAGTCATTT` , is the recorded switch fluorescence ratio at or above 1?
Completion: MET

Prompt: Hi team, for `CCTGGAAGCG` , is the recorded switch fluorescence ratio at or above 1?
Completion: MET

Prompt: Hi team, for `TCGCGAATGG` , is the recorded switch fluorescence ratio at or above 1?
Completion: MET

Prompt: Hi team, for `GACACAAAAG` , is the recorded switch fluorescence ratio at or above 1?
Completion: MET

Prompt: Hi team, for `ATCTGATGGC` , is the recorded switch fluorescence ratio at or above 1?
Completion: NOT MET

Prompt: Hi team, for `GAGAAATGCG` , is the recorded switch fluorescence ratio at or above 1?
Completion: MET

Prompt: Hi team, for `TAGTAGTCGG` , is the recorded switch fluorescence ratio at or above 1?
Completion: NOT MET

Prompt: Hi team, for `CGAGTAGTGC` , is the recorded switch fluorescence ratio at or above 1?
Completion: MET

Prompt: Hi team, for `CACAAACAGA` , is the recorded switch fluorescence ratio at or above 1?
Completion: MET

Prompt: Hi team, for `ACACTATAAT` , is the recorded switch fluorescence ratio at or above 1?
Completion: MET

Prompt: Hi team, for `GTTGGCGACG` , is the recorded switch fluorescence ratio at or above 1?
Completion: NOT MET

Prompt: Hi team, for `TTATACGGAA` , is the recorded switch fluorescence ratio at or above 1?
Completion: MET

Prompt: Hi team, for `TGATTCATGA` , is the recorded switch fluorescence ratio at or above 1?
Completion: NOT MET

Prompt: Hi team, for `AATTTAAAGT` , is the recorded switch fluorescence ratio at or above 1?
Completion: NOT MET

Prompt: Hi team, for `TCTGTGGTGT` , is the recorded switch fluorescence ratio at or above 1?
Completion: MET

Prompt: Hi team, for `ACAAAATTTT` , is the recorded switch fluorescence ratio at or above 1?
Completion: MET

Prompt: Hi team, for `TAGTCGGGTT` , is the recorded switch fluorescence ratio at or above 1?
Completion: NOT MET

Prompt: Hi team, for `TGCGATTTGT` , is the recorded switch fluorescence ratio at or above 1?
Completion: MET

---

Test system: ATP;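 also: ATP exposure 15 min at 22 °C before imaging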
Assay: switch fluorescence ratio, 500 uM ATP over buffer (Cy3 cluster intensity, sum of 5 cycles each) (fold (ratio)); higher = stronger signal-on switching upon ATP binding; sequences stand for … in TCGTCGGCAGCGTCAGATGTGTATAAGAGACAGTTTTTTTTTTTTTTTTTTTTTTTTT…TC
Conditions: aptamer strand: ATP DNA aptamer (quencher-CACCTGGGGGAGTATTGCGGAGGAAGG + anchor), 100 nM annealed; ATP concentration: 500 uM
measurementLabel: switch fluorescence ratio
// no unit, no text: just the number

Prompt: Report measured switch fluorescence ratio; entry is `TGATGGACGG`
Completion: 1

Prompt: Report measured switch fluorescence ratio; entry is `TTTATTTGAT`
Completion: 0.995

Prompt: Report measured switch fluorescence ratio; entry is `AGTTGGGTTG`
Completion: 1

Prompt: Report measured switch fluorescence ratio; entry is `TCGGCTGGGG`
Completion: 0.991

Prompt: Report measured switch fluorescence ratio; entry is `GACGGGCCGT`
Completion: 1.01

Prompt: Report measured switch fluorescence ratio; entry is `CGTTAATTCG`
Completion: 1

Prompt: Report measured switch fluorescence ratio; entry is `GGGGTGGATA`
Completion: 0.996

Prompt: Report measured switch fluorescence ratio; entry is `GAACTGATAA`
Completion: 1.16

Prompt: Report measured switch fluorescence ratio; entry is `ACGCTTGCTA`
Completion: 1.02

Prompt: Report measured switch fluorescence ratio; entry is `TTTATACGGT`
Completion: 1.01

Prompt: Report measured switch fluorescence ratio; entry is `ACTCTTAGGG`
Completion: 1.03

Prompt: Report measured switch fluorescence ratio; entry is `TACTTTTGCA`
Completion: 0.985

Prompt: Report measured switch fluorescence ratio; entry is `TAGCGCAGGC`
Completion: 0.996

Prompt: Report measured switch fluorescence ratio; entry is `TAGATAAACT`
Completion: 0.997

Prompt: Report measured switch fluorescence ratio; entry is `ATTGTTGGAT`
Completion: 1.01

Prompt: Report measured switch fluorescence ratio; entry is `ATAGCAGAAG`
Completion: 1.06

Prompt: Report measured switch fluorescence ratio; entry is `GATCATTTGT`
Completion: 0.98

Prompt: Report measured switch fluorescence ratio; entry is `CGAGGACTTC`
Completion: 1.02
